system: Ishikawa (K-Ras wild type cell line); assay: Viability assay (CellTiterBlue, 72 hr) Ishikawa; assay type: cell-based; conditions: Homo sapiens, GI50, CellTiterBlue, Ishikawa K-Ras wild-type
Readout type: IC50 (µM)
Give bare numbers, in µM.

Would you please look over these solved cases?
- Molecule: "Cc1nc(NC(=O)Nc2ccccc2)sc1C(=O)Nc1nc(-c2ccc3c(c2)CCC(=O)N3)cs1"
  Data value: 15
- Molecule: "Cc1nc(C)c(C(=O)Nc2nc(-c3ccc4c(c3)CCC(=O)N4CC3CCOC3)cs2)o1 (stereo not shown)"
  Data value: 2
- Molecule: "Cc1nn(-c2ccccc2)c(C)c1C(=O)Nc1nc(-c2ccc3c(c2)CCC(=O)N3)cs1"
  Data value: 13
- Molecule: "Cc1nc(C)c(C(=O)Nc2nc(-c3ccc4c(c3)CCC(=O)N4Cc3cccc4cnccc34)cs2)o1"
  Data value: 2
- Molecule: "COCCN1C(=O)CCc2cc(-c3csc(NC(=O)c4oc(C(C)C)nc4C)n3)ccc21"
  Data value: 4
- Molecule: "CCn1cc(C(=O)Nc2nc(-c3ccc4c(c3)CCC(=O)N4Cc3cccnc3)cs2)c(C)n1"
  Data value: 9

// batch mode: one IC50 value per listed entry
1. Cc1nc(C)c(C(=O)Nc2nc(-c3ccc4c(c3)CCC(=O)N4Cc3ccccc3)cs2)o1
2. Cn1ncc(C(=O)Nc2nc(-c3ccc4c(c3)CCC(=O)N4)cs2)c1C1CC1

1. 6
2. 19
